All values here come from PubChem BioAssay (NCI).

Test system: MDA-MB-468 breast
assay.notes: NCI-60 one-dose screen, 48 h
test.settings: 10 µM unless noted
Protocol: Growth inhibition of the MDA-MB-468 human Breast tumor cell line is measured as a screen for anti-cancer activity. Cells are grown in 96 well plates and exposed to the test compound for 48 hours. Compounds are tested at a single concentration, which is 10^-5 M for most compounds. The reported endpoint is percent growth (GI% or GIPRCNT), where numbers from 0 - 100% represent growth inhibition, and numbers from -100% - 0 represent cell death. […]
The panel holds about 83,000 compounds, 20% with a hit somewhere; the sample as a whole holds those more often. The source made the active and inactive calls. Rule for the calls: active = growth percent below 10; inactive = the rest.
The reply should name one outcome from t (active), f (inactive)

CCCCCc1ccc(S(=O)(=O)Nc2cccc(-c3csc(NCCN4CCN(C)CC4)n3)c2)cc1 :: f
COc1ccc(OC)c(/C=C/[C@H]2O[C@@H](C)[C@H](O)[C@@H]2O)c1 :: f
C=C(C[C@@](O)(C(=O)Oc1ccccc1)C(=O)C1CCCCC1)c1ccccc1 :: f
Cc1ccc(-c2nc3nc(-c4ccccc4)nc(N4CCN(S(=O)(=O)c5ccccc5)CC4)c3o2)cc1 :: f

Q: Tell me the recorded outcome of this test for CC(=O)Nc1ccc2nc3ccc(NC(C)=O)cc3[n+](-c3ccccc3)c2c1 .
Ans: f

Q: Tell me the recorded outcome of this test for CC/C=C\C/C=C\C[C@H](O)C/C=C1/C(=O)C=C[C@@H]1C/C=C\CCCC(=O)OC .
Ans: t

Q: Tell me the recorded outcome of this test for Cc1ccc2c(/C=C/C(=O)c3cc(CN4CCOCC4)c(O)c4nc(C)ccc34)cc(CN3CCOCC3)c(O)c2n1 .
Ans: t

Q: Tell me the recorded outcome of this test for COc1ccc(-c2nc3sc(C)nn3c2-c2nc3cc(C)c(C)cc3[nH]2)cc1 .
Ans: f

Q: Tell me the recorded outcome of this test for COc1cccc(CCN2C(=O)CCC3=C2CCC3=O)c1 .
Ans: f

Q: Tell me the recorded outcome of this test for O=C(Nc1nonc1-c1ccccc1)c1ccc(C(F)(F)F)cc1 .
Ans: f

###

Tested on: MDA-MB-468 breast
assay.notes: NCI-60 one-dose screen, 48 h
test.settings: 10 µM unless noted
About 83,000 compounds went through this panel and 20% of them were active in at least one assay; those are over-represented in the sample as a whole. Active and inactive are the calls of the source. How the source made its calls: active means growth percent below 10; inactive means the rest.
The reply should name one outcome from active, inactive

CC(C)(C)OC(=O)Nc1ccc(-c2cccc(Oc3ccc4nnc(Cl)n4n3)c2)cc1 :: inactive
FC(F)(F)c1ccc(/C=N/Nc2nnc3n2N=C(c2ccc(Cl)cc2)CS3)cc1 :: inactive
O=C1/C=C/[C@@H](O)[C@@H]2C[C@@H](O)C[C@H]2/C=C/CCC[C@H](CCc2ccccc2)O1 :: active
BrCCCc1n(Cc2ccc3ccccc3c2)c2ccccc2[n+]1Cc1ccc2ccccc2c1 :: active
CCC(C)(C)C1CCC(O)CC1 (stereo not drawn) :: inactive

Q: Tell me the recorded outcome of this test for CC(=O)c1ccc(Br)c([N+](=O)[O-])c1 .
Ans: inactive

Q: Tell me the recorded outcome of this test for CCNC(=O)N1CCc2cc(OC)c(OCCc3ccc(OC)c(N)c3)cc2C1c1cc(C)c(C)cc1C (stereo not drawn) .
Ans: inactive

###

System: MDA-MB-468 breast
assay.notes: NCI-60 one-dose screen, 48 h
test.settings: 10 µM unless noted
This is part of a sample that, as a whole, favours compounds with a hit. Of some 83,000 tested, about 20% had one in any assay. Calls of active or inactive are those of the source. The calls were made as follows: active = growth percent below 10; inactive = the rest.
The reply should name one outcome from 1.0 = active, 0.0 = inactive

CCCCCCCCCNCCCCCCCCC :: 0.0
COc1cccc2c1O/C(=C\c1ncc([N+](=O)[O-])n1C)C2=O :: 0.0

Q: Tell me the recorded outcome of this test for Oc1c(CNCCNCc2cc(Cl)cc(Cc3ccccc3)c2O)cc(Cl)cc1Cc1ccccc1 .
Ans: 0.0

Q: Tell me the recorded outcome of this test for S=C1CCSC(=S)N1CCCN1C(=S)CCSC1=S .
Ans: 0.0

Q: Tell me the recorded outcome of this test for CCCCCc1c(C)[nH]c(/C=C2\N=C(c3ccc[nH]3)C=C2Oc2ccc(Cl)cc2)c1C .
Ans: 1.0

Q: Tell me the recorded outcome of this test for Cc1ccc(-c2nc(N3CCCNCC3)c3oc(-c4ccc(C)cc4)nc3n2)cc1 .
Ans: 1.0

Q: Tell me the recorded outcome of this test for O=C(CCCSc1nc(-c2ccc(Cl)cc2)cc(-c2ccc(Cl)cc2)n1)NO .
Ans: 1.0

Q: Tell me the recorded outcome of this test for O=C1Nc2c(c(=O)n(-c3ccccc3)c3ccccc23)C(c2ccc(Cl)cc2)N1 (configuration not stated) .
Ans: 0.0

Q: Tell me the recorded outcome of this test for CCCC(=O)NC(c1cccnc1)c1cc(C(C)(C)C)c2cccnc2c1O (configuration not stated) .
Ans: 1.0

Q: Tell me the recorded outcome of this test for CCN(CC)CCOC(=O)c1ccc(NC(=O)Nc2cccc(Cl)c2)cc1 .
Ans: 0.0

###

Tested on: MDA-MB-468 breast
assay.notes: NCI-60 one-dose screen, 48 h
test.settings: 10 µM unless noted
Compounds without any hit were thinned out: in the full panel of roughly 83,000, 20% have a hit. Calls of active or inactive are those of the source. Rule for the calls: active = growth percent below 10; inactive = the rest.
The reply should name one outcome from active, inactive

Q: Tell me the recorded outcome of this test for CC(C)c1ccc2occ(C=C3C(=O)NC(=O)NC3=O)c(=O)c2c1 .
Ans: inactive

Q: Tell me the recorded outcome of this test for COC(=O)[C@]12CC[C@@H](C)[C@H](C)[C@@H]1C1=CC[C@@H]3[C@@]4(C)C(C=O)=C[C@@](C)(COC(C)=O)[C@@H]4[C@H](O)C[C@@]3(C)[C@]1(C)CC2 .
Ans: active

Q: Tell me the recorded outcome of this test for COc1cccc2c1[C@H](OC)[C@]13O[C@@]1(C2=O)[C@H](O)[C@H](C)[C@@](O)(C(=O)[C@@H]1O[C@H]1C)[C@@H]3O .
Ans: active

Q: Tell me the recorded outcome of this test for Cc1cccc2c1S/C(=C/c1ccc([N+](=O)[O-])cc1)C2=O .
Ans: inactive

Q: Tell me the recorded outcome of this test for CN(C)c1ccc(-c2cc(-c3cccc(NS(C)(=O)=O)c3)nc(N)c2C#N)cc1 .
Ans: active

Q: Tell me the recorded outcome of this test for N=c1nc(N)ncn1-c1ccccc1 .
Ans: inactive

###

Test system: MDA-MB-468 breast
assay.notes: NCI-60 one-dose screen, 48 h (100 = growth as untreated, 0 = no growth, -100 = all killed)
test.settings: 10 µM unless noted
Compounds without any hit were thinned out: in the full panel of roughly 83,000, 20% have a hit.
attribute.measured: growth (%)
Answers are plain numbers, in %.

O=C(NC1CCOCC1)c1ccc2c(c1)CN(c1ncc(Cc3cccc(-n4cccn4)c3)s1)CC2 :: 41.4
CCCCNc1ccc(-c2ccc(NCCCC)cc2)cc1 :: 29.9

Record growth for all entries; do not skip any.
1. CNc1ccc(CSc2ccc(Cl)cc2)cc1
2. Cc1cc(C)c(/C=C2\C(=O)Nc3ccc(NC(=O)CCCCCCC(=O)NO)cc32)[nH]1
3. CCCCOc1ccc(NC(=O)n2nc(N=NN(C)C)c3ccc(Cl)cc32)cc1
4. O=C(Nc1cc(F)cc2cccnc12)c1cnc(N2CCOCC2)cn1
5. CCOc1cc(\C=N/N=C(N)/C(N)=N\N=C/c2ccc(O)c(OCC)c2)ccc1O
6. O=C(/C(=C/c1ccc([N+](=O)[O-])cc1)SCc1ccc(F)cc1)c1ccc(Cl)cc1

Ans:
1: 78.5; 2: 13; 3: 97.9; 4: 18.5; 5: 111; 6: 76.4

Record growth for all entries; do not skip any.
1. Fc1cc2[nH]ncc2c2c3c(c(-c4cn[nH]c4)nc12)CCCC3
2. CS(=O)(=O)CCNCc1ccc(-c2ccc3ncnc(Nc4ccc(OCc5cccc(F)c5)c(Cl)c4)c3c2)o1
3. N#Cc1cnc2ccc(-c3cnc(N)nc3)cc2c1N1CCc2cc(F)c(Cl)cc21

Ans:
1. -22.4
2. -56.5
3. -38.1

###

System: MDA-MB-468 breast
assay.notes: NCI-60 one-dose screen, 48 h (100 = growth as untreated, 0 = no growth, -100 = all killed)
test.settings: 10 µM unless noted
Method: Growth inhibition of the MDA-MB-468 human Breast tumor cell line is measured as a screen for anti-cancer activity. Cells are grown in 96 well plates and exposed to the test compound for 48 hours. Compounds are tested at a single concentration, which is 10^-5 M for most compounds. The reported endpoint is percent growth (GI% or GIPRCNT), where numbers from 0 - 100% represent growth inhibition, and numbers from -100% - 0 represent cell death. […]
This is part of a sample that, as a whole, favours compounds with a hit. Of some 83,000 tested, about 20% had one in any assay.
attribute.measured: growth (%)
One number for each entry, in %.

COc1ccc(-c2nn(-c3cccc(NC(=O)c4cc(C(F)(F)F)cc(C(F)(F)F)c4)c3)cc2-c2ccncc2)cc1Cl :: 61.4

Record growth for all entries; do not skip any.
1. O=C(/C=C/c1cccs1)c1ccc(Cl)nc1
2. COc1ccc2c(c1)c(C(=O)c1nc(-c3cn(C)c4ccccc34)no1)cn2C
3. CCCNc1nc2ccccc2c2c1S(=O)(=O)c1ccc(Cl)cc1C2=O

Ans:
103
108
3.32
